Assay: refractive index (Na D-line) (dimensionless); xn = mol fraction of the nth substance listed
Settings: 318.15 K; 100.5 kPa; Liquid; Standard Abbe refractometry; x1 = 0.65
Listed compounds paired with reported refractive index
measured.attribute: refractive index

CCOC(=O)Cc1ccccc1 [ethyl phenylacetate] + CCO :: 1.46391
CCCCCCCC(=O)OCC [ethyl octanoate] + CCO :: 1.39914
CCOC(=O)c1ccccc1 [ethyl benzoate] + CCO :: 1.4689
CC(=O)OCCC(C)C [3-methylbutyl ethanoate] + CCO :: 1.38211
CCCC(=O)OCCC(C)C [3-methylbutyl butanoate] + CCO :: 1.3921
CCCCCC(=O)OCC [ethyl hexanoate] + CCO :: 1.38857
